// provenance: patent US20250186594A1

Molecular target: T1, IL-18 receptor (IL-18R) on HEK-Blue IL18R reporter cells (UniProt Q13478 19-541; O95256 20-599, limits assumed)
T1 sequence (looked up) 1: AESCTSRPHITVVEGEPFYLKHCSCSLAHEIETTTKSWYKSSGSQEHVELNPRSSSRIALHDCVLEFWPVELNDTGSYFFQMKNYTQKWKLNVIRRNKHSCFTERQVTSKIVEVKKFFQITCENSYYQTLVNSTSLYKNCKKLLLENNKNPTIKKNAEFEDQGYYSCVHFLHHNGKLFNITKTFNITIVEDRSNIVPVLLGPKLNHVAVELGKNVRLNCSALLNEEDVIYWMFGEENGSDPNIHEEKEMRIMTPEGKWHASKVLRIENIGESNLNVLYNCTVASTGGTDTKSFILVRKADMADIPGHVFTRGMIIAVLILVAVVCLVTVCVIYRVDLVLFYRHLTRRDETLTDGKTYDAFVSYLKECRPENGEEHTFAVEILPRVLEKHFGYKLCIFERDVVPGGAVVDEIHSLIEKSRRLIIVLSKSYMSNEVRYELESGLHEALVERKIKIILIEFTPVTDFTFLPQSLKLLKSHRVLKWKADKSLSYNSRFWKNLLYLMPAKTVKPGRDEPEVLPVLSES
T1 sequence (looked up) 2: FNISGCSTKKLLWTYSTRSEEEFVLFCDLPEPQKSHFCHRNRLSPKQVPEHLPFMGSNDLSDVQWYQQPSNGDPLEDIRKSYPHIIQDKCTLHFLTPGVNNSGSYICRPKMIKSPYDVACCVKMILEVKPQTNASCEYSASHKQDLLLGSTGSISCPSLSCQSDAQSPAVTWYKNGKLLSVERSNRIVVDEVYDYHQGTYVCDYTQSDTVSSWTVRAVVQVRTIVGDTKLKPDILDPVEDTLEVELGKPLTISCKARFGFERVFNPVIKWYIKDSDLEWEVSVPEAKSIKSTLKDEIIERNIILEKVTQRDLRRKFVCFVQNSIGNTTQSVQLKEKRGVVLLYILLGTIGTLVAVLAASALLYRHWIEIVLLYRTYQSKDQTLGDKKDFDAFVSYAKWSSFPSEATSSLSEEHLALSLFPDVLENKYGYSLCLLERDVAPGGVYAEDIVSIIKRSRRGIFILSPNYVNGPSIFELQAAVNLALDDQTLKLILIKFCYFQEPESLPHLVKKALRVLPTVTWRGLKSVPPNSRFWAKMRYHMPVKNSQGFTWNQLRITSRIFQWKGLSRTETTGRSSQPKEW
Experiment: cell-based or functional assay
Parameter EC50, HEK-Blue IL18R reporter: see the listing below.
METRIC: EC50, HEK-Blue IL18R reporter (pM)

>>> measured_number("IL-18 variant SEQ ID NO: 61 (E6K, C38A, K53A, C76A) (ligand) YFGKLKSKLSVIRNLNDQVLFIDQGNRPLFEDMTDSDARDNAPRTIFIISMYADSQPRGMAVTISVKCEKISTLSAENKIISFKEMNPPDNIKDTKSDIIFFQRSVPGHDNKMQFESSSYEGYFLACEKERDLFKLILKKEDELGDRSIMFTVQNED")
84
>>> measured_number("IL-18 variant SEQ ID NO: 233 (E6K, V11I, C38A, I49R, K53A, T63A, C76A, C127A) (ligand) YFGKLKSKLSIIRNLNDQVLFIDQGNRPLFEDMTDSDARDNAPRTIFIRSMYADSQPRGMAVAISVKCEKISTLSAENKIISFKEMNPPDNIKDTKSDIIFFQRSVPGHDNKMQFESSSYEGYFLAAEKERDLFKLILKKEDELGDRSIMFTVQNED")
40
>>> measured_number("IL-18 variant SEQ ID NO: 219 (V11I, C38A, K53A, C76A, G108A, C127A) (ligand) YFGKLESKLSIIRNLNDQVLFIDQGNRPLFEDMTDSDARDNAPRTIFIISMYADSQPRGMAVTISVKCEKISTLSAENKIISFKEMNPPDNIKDTKSDIIFFQRSVPAHDNKMQFESSSYEGYFLAAEKERDLFKLILKKEDELGDRSIMFTVQNED")
15600
